test system: Histophilus somni; assay: minimum inhibitory concentration (MIC); conditions: isolate (source animal id): 271
Assign minimum inhibitory concentration to each entry below.

Record excerpt, results attached:
INSERT INTO assay_data (compound, endpoint_result) VALUES
  ('COc1cc(Cc2cnc(N)nc2N)cc(OC)c1OC.Cc1cc(NS(=O)(=O)c2ccc(N)cc2)no1 [trimethoprim-sulfamethoxazole]', '≤ 2 µg/mL'),
  ('CC1(C)S[C@@H]2[C@H](NC(=O)[C@H](N)c3ccccc3)C(=O)N2[C@H]1C(=O)O [Ampicillin]', '≤ 0.25 µg/mL'),
  ('CCN1CCN(c2cc3c(cc2F)c(=O)c(C(=O)O)cn3C2CC2)CC1 [Enrofloxacin]', '≤ 0.12 µg/mL');

We next turn to a different compound, shown below.
Looking up CN1C[C@@H]2C[C@H]1CN2c1cc2c(cc1F)c(=O)c(C(=O)O)cn2C1CC1 [Danofloxacin] , I see its minimum inhibitory concentration listed as ≤ 0.12 µg/mL
